Numbers sourced from ChEMBL document CHEMBL4390642.

target: Mu-type opioid receptor (Homo sapiens, UniProt P35372); test: Agonist activity at human mu opioid receptor expressed in CHOK1 cells coexpressing Galpha15 assessed as increase in intracellular calcium flux in presence of mu opioid receptor antagonist naloxone and incubated for 1 hr measured for 90 secs at 1.5 sec interval by FLIPR assay; type: functional, cell-based
Sequence (P35372 whole entry): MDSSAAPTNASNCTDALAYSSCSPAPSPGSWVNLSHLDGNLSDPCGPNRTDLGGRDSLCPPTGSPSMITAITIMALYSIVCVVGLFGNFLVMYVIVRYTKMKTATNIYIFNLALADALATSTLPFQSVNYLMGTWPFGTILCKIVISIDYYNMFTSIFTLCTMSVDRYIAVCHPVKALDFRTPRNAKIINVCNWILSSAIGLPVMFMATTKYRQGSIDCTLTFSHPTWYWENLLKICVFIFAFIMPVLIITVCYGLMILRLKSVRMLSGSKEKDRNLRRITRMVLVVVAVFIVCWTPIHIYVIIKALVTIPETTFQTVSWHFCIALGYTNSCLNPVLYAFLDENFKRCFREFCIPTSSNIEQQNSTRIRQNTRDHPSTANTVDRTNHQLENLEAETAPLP
pEC50: −log10 of the molar value.
Form field: pEC50 (one value per entry).
value.kind: pEC50

Cc1cc(C)c(Nc2nc(-c3oc(C)nc3C)cs2)c(C)c1 = 5.41
Cc1nc(C)c(-c2csc(Nc3c(C)cccc3F)n2)s1 = 5.38
CCc1cccc(C)c1Nc1nc(-c2sc(C)nc2C)cs1 = 5.55
COc1ccc(Nc2nc(-c3sc(C)nc3C)cs2)c(OC)c1 = 4.72
Cc1nc(C)c(-c2csc(Nc3ccccc3CC(F)(F)F)n2)s1 = 5.07
Cc1nc(C)c(-c2csc(Nc3cccc(F)c3C)n2)s1 = 5.00
COc1ccc(Nc2nc(-c3sc(C)nc3C)cs2)c(C)c1 = 4.85
Cc1nc(C)c(-c2csc(Nc3ccc(Br)cc3C(F)(F)F)n2)s1 = 4.86
CCc1ccccc1Nc1nc(-c2oc(C)nc2C)cs1 = 5.48
CCc1nc(C)c(-c2csc(Nc3ccccc3CC)n2)s1 = 5.07
COc1cccc(Nc2nc(-c3sc(C)nc3C)cs2)c1C = 5.48
Cc1ccc(Nc2nc(-c3sc(C)nc3C)cs2)c(C)c1 = 5.06
CCc1ccccc1Nc1ncc(-c2sc(C)nc2C)o1 = 4.88
CCc1cc(Br)ccc1Nc1nc(-c2sc(C)nc2C)cs1 = 5.31
Cc1cc(C)c(Nc2nc(-c3sc(C)nc3C)cs2)c(C)c1 = 5.21
